- Tested on: UACC-62 melanoma
- Test Name: NCI tumour cell line growth inhibition, 48 h; in the data active = GI50 below about 0.43 µM; inactive = the rest
Peptide text beside a SMILES is read from it. * marks the point of attachment. Boc = CC(C)(C)OC(=O)*
Labels: true for active, false for inactive

CC1Cc2c(Cl)ncnc2N(C)c2ccccc21 (configuration not stated) | false
Cn1nc(C(F)(F)F)cc1-c1cc(Cl)c(OCc2ccc(Cl)cc2)c(-c2ccc(Cl)c(C(F)(F)F)c2)c1O | false
COC(=O)[C@]1(C)CCC[C@@]2(C)C3=C(CC[C@H]12)C[C@@H](CC(OC(C)=O)OC(C)=O)[C@@H](C)C3 | false
c1ccc2c(N=NSc3ncnc4nc[nH]c34)c3ccccc3nc2c1 | false
CC1=CC(C)=N/C(=N/S(=O)(=O)c2cc(C)c(Cl)cc2SCc2ccccc2)NN1 | false
CCOC(=O)N1CCC(N=C2CSc3nnc(-c4cc(C(F)(F)F)cc(C(F)(F)F)c4)n3N2)CC1 | false
COc1cc2c(cc1OCC(=O)Nc1ccc(Cl)cc1C(=O)c1ccccc1Cl)N=CC1CCCN1C2=O (configuration not stated) | false
Nc1nc(N)c2c(ccc3c2ccn3Cc2cccc([N+](=O)[O-])c2)n1 | true
CCC[CH2][Sn]1([CH2]CCC)[O]C(=O)c2cccc([N+](=O)[O-])c2C(=O)[O]1 | true
CN(C(=O)C(C)(C)C)c1ccccc1I(=O)=O | false
CCOC(=O)C1=C(Nc2ccc(OC)cc2)C(N)=NC1=N | false
CC(C)C(NC(=O)OC(C)(C)C)C(=O)N1CCCC1C(=O)O (stereo not drawn) (Boc-Val-Pro-OH; configuration not given here) | false
CN1C(=O)N(C)C2C1NC(=S)N2/N=C/C=C/c1ccccc1[N+](=O)[O-] (configuration not stated) | true
CCCCCCC(=O)NC1=C(N2CC2)C(=O)C(NC(=O)CCCCCC)=C(N2CC2)C1=O | false
O=C(Nc1cccc([N+](=O)[O-])c1)c1cccc(C(=O)Nc2cccc([N+](=O)[O-])c2)c1 | false
CCN1CCN(C(=O)[C@]23CC[C@@H](C)[C@H](C)[C@@H]2C2=CC[C@@H]4[C@@]5(C)CCC(=O)C(C)(C)[C@@H]5CC[C@@]4(C)[C@]2(C)CC3)CC1 | false
Oc1c(C(c2ccc(F)cc2)N2CCCCC2)ccc2cncnc12 (configuration not stated) | false
COc1cc2ncnc(Oc3ccc(NC(=O)Nc4ccc(CN5CCOCC5)c(C(F)(F)F)c4)c4ccccc34)c2cc1OC | false
COc1cc2c3c(n(C)c(=O)c2cc1OC)-c1cc2c(cc1/C3=C\CCCCl)OCO2 | false
COc1ccc2c3ccnc(C(F)(F)F)c3n(CCCCN)c2c1 | false
C[C@@H]1CC[C@@H]2[C@@H]1[C@H](OC(=O)/C=C/C1CCCCC1)[C@]1(C3CCCCC3)C[C@@H](OC(=O)CO)[C@@]2(C)O1 | false
Cc1cc(I)cc(CN(C)CCCN2CCC(C)CC2)c1O | false
